From: PubChem BioAssay

- ASSAY EXPLANATION: reduction of polyQ htt aggregates in cells – imaging, exon1htt(103Q)mCFP cells, high-content imaging, primary screen (AID 483);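 further: compound exposure lasted 3 days before fixation; percent of the per-plate median nuclei count of sample wells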
- CONDITIONS USED: exon1htt(103Q)mCFP cell line, aggregate imaging, at 2 µM; measured here: cell count, toxicity
READOUT KIND: nuclei count (%)

[
  {
    "MOLECULE": "CCN(CC)S(=O)(=O)c1ccc2[nH]cc(C(=O)NCCC3=CCCCC3)c(=O)c2c1",
    "READOUT KIND": "nuclei count",
    "UNIT ANNOTATION": "%",
    "ENDPOINT VALUE": 71.6
  },
  {
    "MOLECULE": "Cc1ccc(-c2cc(C(F)(F)F)n3nc(C(=O)N4CCCC4)cc3n2)cc1",
    "READOUT KIND": "nuclei count",
    "UNIT ANNOTATION": "%",
    "ENDPOINT VALUE": 107
  },
  {
    "MOLECULE": "CC(C)Cn1c(-c2ccc(F)cc2)n[nH]c1=S",
    "READOUT KIND": "nuclei count",
    "UNIT ANNOTATION": "%",
    "ENDPOINT VALUE": 106
  },
  {
    "MOLECULE": "N#CCCn1ccc(NC(=O)c2ccc(Cl)cc2)n1",
    "READOUT KIND": "nuclei count",
    "UNIT ANNOTATION": "%",
    "ENDPOINT VALUE": 100
  },
  {
    "MOLECULE": "O=C1CN(c2nc3ccccc3n3cnnc23)CC(=O)N1CCc1ccccc1",
    "READOUT KIND": "nuclei count",
    "UNIT ANNOTATION": "%",
    "ENDPOINT VALUE": 112
  },
  {
    "MOLECULE": "O=S1(=O)C=C(Sc2nc3ccccc3s2)c2ccccc21",
    "READOUT KIND": "nuclei count",
    "UNIT ANNOTATION": "%",
    "ENDPOINT VALUE": 67.1
  },
  {
    "MOLECULE": "CCCN1CC23C=CC(O2)C(C(=O)O)C3C1=O (stereo not drawn)",
    "READOUT KIND": "nuclei count",
    "UNIT ANNOTATION": "%",
    "ENDPOINT VALUE": 109
  },
  {
    "MOLECULE": "COc1ccc(NC(=O)CCc2ccccc2)cc1NC(=O)c1ccco1",
    "READOUT KIND": "nuclei count",
    "UNIT ANNOTATION": "%",
    "ENDPOINT VALUE": 88.9
  },
  {
    "MOLECULE": "C=CCn1c(SC(C)C(=O)NC2(C#N)CCCCC2)nnc1-c1ccc(OC)cc1 (stereo not drawn)",
    "READOUT KIND": "nuclei count",
    "UNIT ANNOTATION": "%",
    "ENDPOINT VALUE": 95
  },
  {
    "MOLECULE": "CCC(C(=O)OCC(=O)Nc1c(C)n(C)n(-c2ccccc2)c1=O)c1ccccc1 (stereo not drawn)",
    "READOUT KIND": "nuclei count",
    "UNIT ANNOTATION": "%",
    "ENDPOINT VALUE": 89.5
  },
  {
    "MOLECULE": "CSc1nc(C)cc(OCC(=O)N2CCOCC2)n1",
    "READOUT KIND": "nuclei count",
    "UNIT ANNOTATION": "%",
    "ENDPOINT VALUE": 104
  },
  {
    "MOLECULE": "CCOC(=O)C1=C(C)NC2=C(C(=O)CC(C)(C)C2)C1c1ccc(N(C)C)cc1 (stereo not drawn)",
    "READOUT KIND": "nuclei count",
    "UNIT ANNOTATION": "%",
    "ENDPOINT VALUE": 104
  },
  {
    "MOLECULE": "CN=C(Nc1ccc2c(c1)OCO2)SC1CC(=O)N(c2ccccc2)C1=O (stereo not drawn)",
    "READOUT KIND": "nuclei count",
    "UNIT ANNOTATION": "%",
    "ENDPOINT VALUE": 95.4
  },
  {
    "MOLECULE": "Cn1nc(C(=O)N2CCOCC2)c2ccccc2c1=O",
    "READOUT KIND": "nuclei count",
    "UNIT ANNOTATION": "%",
    "ENDPOINT VALUE": 109
  },
  {
    "MOLECULE": "c1ccc(CNc2c3c(nc4ncnn24)CCCC3)nc1",
    "READOUT KIND": "nuclei count",
    "UNIT ANNOTATION": "%",
    "ENDPOINT VALUE": 102
  },
  {
    "MOLECULE": "CS(=O)(=O)N1CCc2cc(S(=O)(=O)Nc3ccc4oc5c(c4c3)CCCC5)ccc21",
    "READOUT KIND": "nuclei count",
    "UNIT ANNOTATION": "%",
    "ENDPOINT VALUE": 104
  },
  {
    "MOLECULE": "CC(C)COc1ccc(C2NC(=O)NC2=O)cc1 (stereo not drawn)",
    "READOUT KIND": "nuclei count",
    "UNIT ANNOTATION": "%",
    "ENDPOINT VALUE": 117
  },
  {
    "MOLECULE": "COc1ccc(-n2c(Cc3cccn3C)nnc2SCC(N)=O)cc1",
    "READOUT KIND": "nuclei count",
    "UNIT ANNOTATION": "%",
    "ENDPOINT VALUE": 63.8
  },
  {
    "MOLECULE": "O=C1CC(c2ccccc2)CC(O)=C1C=NCCN1CCOCC1 (stereo not drawn)",
    "READOUT KIND": "nuclei count",
    "UNIT ANNOTATION": "%",
    "ENDPOINT VALUE": 94.3
  },
  {
    "MOLECULE": "COc1cccc(NC(=O)NC2(C(F)(F)F)Oc3ccccc3O2)c1",
    "READOUT KIND": "nuclei count",
    "UNIT ANNOTATION": "%",
    "ENDPOINT VALUE": 105
  },
  {
    "MOLECULE": "O=C1CCCc2c1cc(C(=O)NCCCN1CCOCC1)c(=O)n2-c1ccc(Cl)cc1",
    "READOUT KIND": "nuclei count",
    "UNIT ANNOTATION": "%",
    "ENDPOINT VALUE": 99.5
  },
  {
    "MOLECULE": "CCN1CCN(c2ncnc3c2cnn3-c2ccc(C)cc2C)CC1",
    "READOUT KIND": "nuclei count",
    "UNIT ANNOTATION": "%",
    "ENDPOINT VALUE": 94.2
  },
  {
    "MOLECULE": "COc1ccc(C)cc1NC(=O)C1CCN(S(=O)(=O)c2cccc3cccnc23)CC1",
    "READOUT KIND": "nuclei count",
    "UNIT ANNOTATION": "%",
    "ENDPOINT VALUE": 76.6
  }
]
